# Experimental Target: T1, His-tagged P3028 (human, not fully specified)
# T1 construct: the tag is put first after 'PGE73=His-tag-P3028'; also called PGE73; not shown: His-tag
# T1 peptide: {His‑tag}-VFDEFKPLVEEPQNLIK
# Protocol Description: chip ELISA
No end group written: not given here.
Everything with ELISA signal lower than 300 is 0 (no); everything else, including exactly 300, is 1 (yes).

Binder | Qualitative Label
KKLDTFFVKLYLFTER [P28R S11Y] | 1 (yes)
KKLDTFFVKLSLFTQR [P28R E15Q] | 1 (yes)
KKLDTFFVRLSLFTER [P28R K9R] | 1 (yes)
KKLDTFFVKLSQFTER [P28R L12Q] | 1 (yes)
FKLDTFFVKLSLFTER [P28R K1F] | 1 (yes)
KKLDAFFVKLSLFTER [P28R T5A] | 1 (yes)
KKLDTFFVKLSLFMER [P28R T14M] | 1 (yes)
KKLDTFFVSLSLFTER [P28R K9S] | 0 (no)
KKLDTDFVKLSLFTER [P28R F6D] | 0 (no)
KKLDTFFVKLSLFTED [P28R R16D] | 0 (no)
KKLDTFFVFLSLFTER [P28R K9F] | 0 (no)
MKLDTFFVKLSLFTER [P28R K1M] | 1 (yes)
KKLDTEFVKLSLFTER [P28R F6E] | 0 (no)

Where do these numbers come from? They come from patent US20170298096A1.
